Values compiled from patent US10005817B2.

EXPERIMENTAL_SYSTEM: delta2 opioid receptor (Mus musculus)
Construct: Cerep
Sequence (P32300 whole entry): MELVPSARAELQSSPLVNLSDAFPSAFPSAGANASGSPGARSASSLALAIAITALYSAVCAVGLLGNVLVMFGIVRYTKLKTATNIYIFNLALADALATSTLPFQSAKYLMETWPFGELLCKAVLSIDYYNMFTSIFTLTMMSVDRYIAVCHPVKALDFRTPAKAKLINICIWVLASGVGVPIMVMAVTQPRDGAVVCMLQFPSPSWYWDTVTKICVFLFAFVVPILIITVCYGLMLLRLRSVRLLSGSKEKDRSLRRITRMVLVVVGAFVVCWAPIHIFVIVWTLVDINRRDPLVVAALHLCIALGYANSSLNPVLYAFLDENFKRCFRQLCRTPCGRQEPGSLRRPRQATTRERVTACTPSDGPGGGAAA
PROTOCOL_DESCRIPTION: delta2 opioid receptor cellular assay (DOP), antagonist mode vs DPDPE, cAMP readout
Type: cell-based
Non-standard residues stand in square brackets, D forms with d. Residues, ends and D or L forms follow the SMILES beside them. *: point of attachment. βGlcA(1-OMe) = CO[C@@H]1O[C@H](C(=O)*)[C@@H](O)[C@H](O)[C@H]1O; Dmt = Cc1cc(O)cc(C)c1C[C@H](N)C(=O)O; Tic = O=C(O)[C@@H]1Cc2ccccc2CN1; Aib = CC(C)(N)C(=O)O
PARAMETER: Characterization (DOP)

{"columns": ["COMPOUND", "EXPERIMENTAL_SYSTEM", "OBSERVED"],
 "data": [
  ["CO[C@@H]1O[C@H](C(=O)NCCCC[C@H](NC(=O)[C@H](Cc2ccccc2)NC(=O)[C@H](Cc2ccccc2)NC(=O)[C@@H]2Cc3ccccc3CN2C(=O)[C@@H](N)Cc2c(C)cc(O)cc2C)C(N)=O)[C@@H](O)[C@H](O)[C@H]1O", "delta2 opioid receptor (Mus musculus)", "pure DOP antag"],
  ["CO[C@@H]1O[C@H](C(=O)NCCCC[C@@H](NC(=O)[C@H](Cc2ccccc2)NC(=O)[C@@H]2Cc3ccccc3CN2C(=O)[C@@H](N)Cc2c(C)cc(O)cc2C)C(N)=O)[C@@H](O)[C@H](O)[C@H]1O [EU-A615, Dmt-Tic-Phe-D-Lys(C1-glucuronyl)-Aib-NH2] (H-[Dmt][Tic]F[dK](βGlcA(1-OMe))-NH2)", "delta2 opioid receptor (Mus musculus)", "pure DOP antag"],
  ["CO[C@@H]1O[C@H](C(=O)NCCCC[C@H](NC(=O)[C@H](Cc2ccccc2)NC(=O)[C@@H]2Cc3ccccc3CN2C(=O)[C@@H](N)Cc2c(C)cc(O)cc2C)C(=O)NC(C)(C)C(N)=O)[C@@H](O)[C@H](O)[C@H]1O [EU-A600, Dmt-Tic-Phe-Lys(C1-glucuronyl)-Aib-NH2] (H-[Dmt][Tic]FK(βGlcA(1-OMe))[Aib]-NH2; N-terminus assumed)", "delta2 opioid receptor (Mus musculus)", "pure DOP antag"]
]}

====

EXPERIMENTAL_SYSTEM: mu opioid receptor (Homo sapiens)
Construct: Cerep
Sequence (P35372 whole entry): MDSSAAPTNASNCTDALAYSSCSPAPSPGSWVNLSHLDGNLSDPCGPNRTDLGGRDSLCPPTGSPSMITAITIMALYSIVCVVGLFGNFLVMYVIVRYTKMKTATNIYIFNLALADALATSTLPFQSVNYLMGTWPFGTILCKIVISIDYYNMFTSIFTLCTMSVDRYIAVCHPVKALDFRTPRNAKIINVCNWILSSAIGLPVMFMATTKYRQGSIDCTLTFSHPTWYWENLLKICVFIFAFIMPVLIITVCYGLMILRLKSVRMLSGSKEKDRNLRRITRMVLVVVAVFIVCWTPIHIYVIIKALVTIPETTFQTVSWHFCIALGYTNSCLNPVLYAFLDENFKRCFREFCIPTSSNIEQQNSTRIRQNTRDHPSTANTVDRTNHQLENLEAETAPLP
PROTOCOL_DESCRIPTION: mu opioid receptor cellular assay (MOP), agonist mode, cAMP readout (Cerep)
Assay type: cell-based
PARAMETER: Characterization (MOP)

{"columns": ["SMILES", "PARAMETER", "OBSERVED"],
 "data": [
  ["CO[C@@H]1O[C@H](C(=O)NCCCC[C@H](NC(=O)[C@H](Cc2ccccc2)NC(=O)[C@H](Cc2ccccc2)NC(=O)[C@@H]2Cc3ccccc3CN2C(=O)[C@@H](N)Cc2c(C)cc(O)cc2C)C(N)=O)[C@@H](O)[C@H](O)[C@H]1O", "Characterization (MOP)", "Pure MOP Ag;"],
  ["CCCCCCCCCCCCO[C@@H]1O[C@H](C(=O)NCCCC[C@H](NC(=O)[C@H](Cc2ccccc2)NC(=O)[C@H](Cc2ccccc2)NC(=O)[C@@H]2Cc3ccccc3CN2C(=O)[C@@H](N)Cc2c(C)cc(O)cc2C)C(N)=O)[C@@H](O)[C@H](O)[C@H]1O", "Characterization (MOP)", "Pure MOP Ag;"]
]}
